B1: Tyrosine-protein kinase BTK, residues 215 to 273; numbered along this chain, Q06187 (parent)
chain: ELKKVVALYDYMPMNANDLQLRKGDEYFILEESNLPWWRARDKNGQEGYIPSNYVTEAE

- Variants of: B1
- Assay Notes: abundance fitness (aPCA) (normalised: wild type 0, dead -1); higher = more abundant; growth selection in yeast, the domain comes from the species named
- Applied Conditions: Homo sapiens
Could you please report measured abundance fitness for the items listed next?
Write the number on its own, no unit after it.

Problem: Given the entry L30M , report its measured abundance fitness.
Solution: -0.087

Problem: Entry to check: G48V
Solution: -0.92

Problem: Entry to check: P36S
Solution: -0.013

Problem: Entry to check: Y27H
Solution: -0.754

Problem: Entry to check: R22H
Solution: -0.08

Problem: Entry to check: D42N
Solution: -0.081

Problem: Entry to check: G48C
Solution: -0.793

Problem: Entry to check: E47D
Solution: -0.011

Problem: Entry to check: D42S
Solution: -0.07

Problem: Entry to check: F28L
Solution: -0.004

Problem: Entry to check: K23M
Solution: -0.169

Values from the Human Domainome abundance scans (Beltran et al. 2025)
